The reported numbers originate from PubChem BioAssay (Tox21).

# Protocol details: A CellTox Green Cytotoxicity Assay to monitor cytotoxicity in HepG2 cells - 8 hour (AID 1224890); also: % is scaled to controls: 0 for no effect and ±100 for the full control effect; nearly all actives have a fitted effect of over 45% in size
# Condition description: CellTox Green fluorescence; series mostly up to 76.8 µM
Results filed as inconclusive are left out. Calls of active or inactive are those of the source. Calls follow the shape of the dose curve; as a rule, active = well fitted activation curve with a large enough effect in the repeat runs; inconclusive = weak or mixed curves; inactive = flat fitted curve, though single readings scatter.
Measure: cytotoxicity increase

As a guide, the following entries are already answered.
[
  {
    "Compound": "CC1(C)OC(=O)Nc2ccc(Br)cc21",
    "cytotoxicity increase": "inactive"
  },
  {
    "Compound": "CCCC(C)CO (stereo unspecified)",
    "cytotoxicity increase": "inactive"
  },
  {
    "Compound": "c1ccc(SCCSc2ccccc2)cc1",
    "cytotoxicity increase": "inactive"
  },
  {
    "Compound": "NCC[C@H](O)C(=O)N[C@@H]1C[C@H](N)[C@@H](O[C@H]2O[C@H](CN)[C@@H](O)[C@H](O)[C@H]2O)[C@H](O)[C@H]1O[C@H]1O[C@H](CO)[C@@H](O)[C@H](N)[C@H]1O",
    "cytotoxicity increase": "-0.472% [at 0.29 µM] (inactive)"
  },
  {
    "Compound": "C=CC(=O)OCCCCCC",
    "cytotoxicity increase": "inactive"
  }
]

// moving on: another record for cytotoxicity increase
Q: // cytotoxicity increase lookup, key: CCC(=O)Nc1cccc(N)c1
Result: inactive

* * *

# Protocol details: qHTS RealTime-Glo MT Cell Viability Assay in HEK293 cells - 32 hour (AID 1224868); also: nearly all actives have a fitted effect of over 50% in size
# Condition description: RealTime-Glo luminescence; series mostly up to 76.8 µM
# From the text: National Center for Advancing Translational Sciences [NCATS] NIH Chemical Genomics Center [NCGC] U.S. Environmental Protection Agency [EPA] National Institutes of Environmental Health Sciences [NIEHS] National Toxicology Program [NTP] U.S. Food and Drug Administration [FDA] Measure of cell viability is critical in the cell-base assay. Analysis of cell viability is necessary for the characterization of cell responses to cytotoxic drugs and environmental stress. […]
Inconclusive results are not listed. Active and inactive are the calls of the source. Calls follow the shape of the dose curve; as a rule, active = well fitted cell-killing curve with a large enough effect in the repeat runs; inconclusive = weak or mixed curves, or effect the other way; inactive = flat fitted curve, though single readings scatter.
Respond using exactly one of the listed classes: class 1 (active), class 0 (inactive)

Q: Assay result, entry CCCCC=O — outcome?
Result: class 0

Q: Now the same for CC(C)c1cccc(O)c1
Result: class 0

Q: Now the same for CCCCCN(CCCCC)C(=O)C(CCC(=O)O)NC(=O)c1ccc(Cl)c(Cl)c1 (stereo not drawn)
Result: class 0

Q: Now the same for Cc1ccc(N)cc1[N+](=O)[O-]
Result: class 0

Q: Now the same for CC(C)[N+](C)(C)CC(O)COc1cccc2ccccc12 (stereo not drawn)
Result: class 0

Q: Now the same for COc1ccc(NC(C)=O)cc1
Result: class 0

Q: Now the same for O=S(=O)(c1cccc2cnccc12)N1CCCNCC1
Result: class 0

Q: Now the same for c1cc(CN2CCCCC2)cc(OCCCNc2nc3ccccc3s2)c1
Result: class 1

Q: Now the same for COC[C@H](c1ccc(C(F)(F)F)cc1)N1CCN(C2(C)CCN(C(=O)c3c(C)ncnc3C)CC2)C[C@H]1C
Result: class 0

Q: Now the same for O=Cc1ccccc1[N+](=O)[O-]
Result: class 0

Q: Now the same for OC1OC[C@@H](O)[C@H](O)[C@H]1O (stereo partly drawn)
Result: class 0

Q: Now the same for CCCCCCCCCCCCCCCCCC(=O)OCCCCCCCCCCCCCC(C)C
Result: class 0

Q: Now the same for COc1cc(O)cc(O)c1
Result: class 0
